pIC50: −log10 of the molar value.
Quick record: pIC50, GCN2 kinase (Homo sapiens (Human), UniProt Q9P2K8).

Record excerpt, results attached:
Nc1ncnc2c1c(-c1cccc(NS(=O)(=O)c3cc(Cl)cc(CO)c3Cl)c1F)cn2-c1cn[nH]c1 = ≥ 7.00
CCC(C)(C)C(=O)OCc1cc(Cl)cc(S(=O)(=O)Nc2cccc(-c3cn(C)c4ncnc(N)c34)c2F)c1Cl = 5.00 to 6.00

Query: # get_value(readout= pIC50, system= GCN2 kinase (Homo sapiens (Human), UniProt Q9P2K8)) for `CC(=O)OCc1cc(Cl)cc(S(=O)(=O)Nc2cccc(-c3cn(C4COC4)c4ncnc(N)c34)c2F)c1Cl`
Result: 5.00 to 6.00

Query: Same lookup for `Cn1cc(-c2cccc(NS(=O)(=O)c3cc(Cl)cc(CO)c3Cl)c2F)c2c(N)nccc21` , please.
Result: 5.00 to 6.00

Query: Same lookup for `Cn1cc(-c2cccc(NS(=O)(=O)c3cccc(CO)c3Cl)c2F)c2c(N)ncnc21` , please.
Result: 5.00 to 6.00

Query: Same lookup for `Cn1cc(-c2cc(F)cc(NS(=O)(=O)c3cc(Cl)cc(CO)c3Cl)c2)c2c(N)ncnc21` , please.
Result: 6.30 to 7.00

Query: Same lookup for `Nc1nccc2occ(-c3cccc(NS(=O)(=O)c4cc(Cl)cc(CO)c4Cl)c3F)c12` , please.
Result: 6.30 to 7.00

###

Test system: CCRF-CEM leukemia cells
Assay: CCRF-CEM ASNase cell proliferation assay
Type: cell-based
Settings: Homo sapiens, 1 mU/mL ASNase, 72 h
pIC50: −log10 of the molar value.
Let's look at some molecules and their measured pIC50.

Record excerpt, results attached:
COCc1cc(Cl)cc(S(=O)(=O)Nc2cccc(-c3cn(C)c4ncnc(N)c34)c2F)c1Cl = 5.00 to 6.00
Nc1ncnc2c1c(-c1cccc(NS(=O)(=O)c3cc(Cl)cc(CO)c3Cl)c1F)cn2C1CNC1 = 6.00 to 6.30
Cn1cc(-c2cccc(NS(=O)(=O)c3cc(Cl)cc(CO)c3Cl)c2F)c2c(N)ncnc21 = ≥ 7.00
Cn1cc(-c2cc(F)cc(NS(=O)(=O)c3cc(Cl)cc(CO)c3Cl)c2)c2c(N)ncnc21 = 6.00 to 6.30

Query: Entry under review: `Nc1nccc2scc(-c3cccc(NS(=O)(=O)c4cc(Cl)cc(CO)c4Cl)c3F)c12` . Reported pIC50?
Result: 6.00 to 6.30

###

Tested on: CCRF-CEM leukemia cells
Assay: CCRF-CEM ASNase cell proliferation assay
Type: cell-based
Conditions: Homo sapiens, 1 mU/mL ASNase, 72 h
pIC50: −log10 of the molar value.
measured.parameter: pIC50

Nc1ncnc2c1c(-c1cccc(NS(=O)(=O)c3cc(Cl)cc(CO)c3Cl)c1F)cn2C1CC1 = ≥ 7.00

// next entry
Query: # get_value(readout= pIC50, system= CCRF-CEM leukemia cells) for `Cc1c(CO)cc(Cl)cc1S(=O)(=O)Nc1cccc(-c2cn(C)c3ncnc(N)c23)c1F`
Result: 6.30 to 7.00

###

Target: PERK oligomers (HEK-293 cells) (Homo sapiens (Human), UniProt Q9NZJ5)
Sequence (Q9NZJ5 30-1116): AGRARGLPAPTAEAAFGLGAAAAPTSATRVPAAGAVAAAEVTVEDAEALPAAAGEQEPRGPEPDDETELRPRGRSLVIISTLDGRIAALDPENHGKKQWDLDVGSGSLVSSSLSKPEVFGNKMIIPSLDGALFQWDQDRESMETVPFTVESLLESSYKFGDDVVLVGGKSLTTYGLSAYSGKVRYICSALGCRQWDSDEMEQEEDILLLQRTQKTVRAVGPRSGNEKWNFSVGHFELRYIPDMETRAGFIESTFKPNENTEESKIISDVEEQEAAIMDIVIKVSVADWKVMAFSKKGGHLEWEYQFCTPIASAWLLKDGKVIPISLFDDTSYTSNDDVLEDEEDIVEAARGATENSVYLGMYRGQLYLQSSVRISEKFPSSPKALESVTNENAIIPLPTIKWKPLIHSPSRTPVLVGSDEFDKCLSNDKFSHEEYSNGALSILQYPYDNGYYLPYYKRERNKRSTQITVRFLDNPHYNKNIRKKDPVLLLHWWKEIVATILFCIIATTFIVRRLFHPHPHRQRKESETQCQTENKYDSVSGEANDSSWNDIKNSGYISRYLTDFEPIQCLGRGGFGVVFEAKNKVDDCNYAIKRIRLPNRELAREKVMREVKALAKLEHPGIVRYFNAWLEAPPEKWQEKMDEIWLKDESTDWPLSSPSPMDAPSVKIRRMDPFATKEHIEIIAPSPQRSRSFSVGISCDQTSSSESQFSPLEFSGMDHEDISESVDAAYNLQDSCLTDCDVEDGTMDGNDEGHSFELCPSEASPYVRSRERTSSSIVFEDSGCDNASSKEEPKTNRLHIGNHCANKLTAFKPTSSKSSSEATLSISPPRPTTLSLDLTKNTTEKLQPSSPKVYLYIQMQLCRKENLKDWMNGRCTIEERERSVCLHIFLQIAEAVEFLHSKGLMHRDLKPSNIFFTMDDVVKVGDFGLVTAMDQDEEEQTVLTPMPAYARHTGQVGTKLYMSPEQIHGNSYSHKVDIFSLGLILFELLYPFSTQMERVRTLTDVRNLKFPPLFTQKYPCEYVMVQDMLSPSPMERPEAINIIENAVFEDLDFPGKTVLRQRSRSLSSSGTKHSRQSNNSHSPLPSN
Sequence (Q9NZJ5 30-1116): as above
Assay: Detection of PERK oligomerization using NanoBRET
Conditions: HEK-293, 4 h, FIG. 2; read-out: stimulation of the formation of PERK oligomers EC50
measured.parameter: EC50 (nM)
Respond with the bare value in nM.

Query: Entry under review: `Cn1cc(-c2cccc(NS(=O)(=O)c3cc(Cl)cc(CO)c3Cl)c2F)c2c(N)ncnc21` . Reported EC50?
Result: 1.6

###

Let's look at some compounds and their measured pIC50.
Molecular target: UniProtKB Q9P2K8
pIC50: −log10 of the molar value.

Cn1nc(-c2cccc(NS(=O)(=O)c3cc(Cl)cc(CO)c3Cl)c2F)c2c(N)ncnc21 [Example 21] = ≥ 7.00

// next entry
Query: # get_value(readout= pIC50, system= UniProtKB Q9P2K8) for Nc1nccc2scc(-c3cccc(NS(=O)(=O)c4cc(Cl)cc(CO)c4Cl)c3F)c12 [Example 11]
Result: 6.30 to 7.00

###

Test system: CCRF-CEM leukemia cells
Assay: CCRF-CEM ASNase cell proliferation assay
Assay type: cell-based
Conditions: Homo sapiens, 1 mU/mL ASNase, 72 h
pIC50: −log10 of the molar value.
measured.parameter: pIC50

CN1CCC(n2cc(-c3cccc(NS(=O)(=O)c4cc(Cl)cc(CO)c4Cl)c3F)c3c(N)ncnc32)CC1 = ≥ 7.00
Nc1ncnc2c1c(-c1cccc(NS(=O)(=O)c3cc(Cl)cc(CO)c3Cl)c1F)cn2C1CCNCC1 = 6.30 to 7.00
COc1c(CO)cc(Cl)cc1S(=O)(=O)Nc1cccc(-c2cn(C)c3ncnc(N)c23)c1F = 5.00 to 6.00
Cn1cc(-c2cccc(NS(=O)(=O)c3cc(Cl)cc(CO)c3Cl)c2Cl)c2c(N)ncnc21 = 6.30 to 7.00
Cn1cc(-c2cccc(NS(=O)(=O)c3cc(Cl)cc(CO)c3Br)c2F)c2c(N)ncnc21 = ≥ 7.00

Query: Entry under review: `Nc1ncnc2c1c(-c1cccc(NS(=O)(=O)c3cc(Cl)cc(CO)c3Cl)c1F)cn2-c1cn[nH]c1` . Reported pIC50?
Result: ≥ 7.00

Query: Same lookup for `Cc1cc(CO)c(Cl)c(S(=O)(=O)Nc2cccc(-c3cn(C)c4ncnc(N)c34)c2F)c1` , please.
Result: 6.30 to 7.00

Query: Same lookup for `CC(=O)OCc1cc(Cl)cc(S(=O)(=O)Nc2cccc(-c3cn(C4COC4)c4ncnc(N)c34)c2F)c1Cl` , please.
Result: 6.30 to 7.00

Query: Same lookup for `Cn1cc(-n2cc(-c3cccc(NS(=O)(=O)c4cc(Cl)cc(CO)c4Cl)c3F)c3c(N)ncnc32)cn1` , please.
Result: ≥ 7.00

Query: Same lookup for `CC(C)(C)n1cc(-c2cccc(NS(=O)(=O)c3cc(Cl)cc(CO)c3Cl)c2F)c2c(N)ncnc21` , please.
Result: 6.30 to 7.00

Query: Same lookup for `Cn1cc(-c2cc(F)cc(NS(=O)(=O)c3cc(Cl)cc(CO)c3Cl)c2F)c2c(N)ncnc21` , please.
Result: 6.30 to 7.00

Query: Same lookup for `Cn1cc(-c2cccc(NS(=O)(=O)c3cc(Cl)cc(CO)c3F)c2F)c2c(N)ncnc21` , please.
Result: 5.00 to 6.00

###

Let's look at some compounds and their measured pIC50.
Tested on: CCRF-CEM leukemia cells
Assay: CCRF-CEM ASNase cell proliferation assay
Format: cell-based
Settings: Homo sapiens, 1 mU/mL ASNase, 72 h
pIC50: −log10 of the molar value.

Record excerpt, results attached:
Cn1cc(-c2cccc(NS(=O)(=O)c3cc(F)cc(CO)c3Cl)c2F)c2c(N)ncnc21 [Example 19] = 6.30 to 7.00
CC(=O)OCc1cc(Cl)cc(S(=O)(=O)Nc2cccc(-c3cn(C)c4ncnc(N)c34)c2F)c1Cl [Example 1] = 6.30 to 7.00
Cn1nc(-c2cccc(NS(=O)(=O)c3cc(Cl)cc(CO)c3Cl)c2F)c2c(N)ncnc21 [Example 21] = 6.30 to 7.00

// next entry
Query: Entry under review: COCCn1cc(-c2cccc(NS(=O)(=O)c3cc(Cl)cc(CO)c3Cl)c2F)c2c(N)ncnc21 [Example 4] . Reported pIC50?
Result: ≥ 7.00

###

Biological target: GCN2 kinase (Homo sapiens (Human))
Sequence (Q9P2K8 whole entry): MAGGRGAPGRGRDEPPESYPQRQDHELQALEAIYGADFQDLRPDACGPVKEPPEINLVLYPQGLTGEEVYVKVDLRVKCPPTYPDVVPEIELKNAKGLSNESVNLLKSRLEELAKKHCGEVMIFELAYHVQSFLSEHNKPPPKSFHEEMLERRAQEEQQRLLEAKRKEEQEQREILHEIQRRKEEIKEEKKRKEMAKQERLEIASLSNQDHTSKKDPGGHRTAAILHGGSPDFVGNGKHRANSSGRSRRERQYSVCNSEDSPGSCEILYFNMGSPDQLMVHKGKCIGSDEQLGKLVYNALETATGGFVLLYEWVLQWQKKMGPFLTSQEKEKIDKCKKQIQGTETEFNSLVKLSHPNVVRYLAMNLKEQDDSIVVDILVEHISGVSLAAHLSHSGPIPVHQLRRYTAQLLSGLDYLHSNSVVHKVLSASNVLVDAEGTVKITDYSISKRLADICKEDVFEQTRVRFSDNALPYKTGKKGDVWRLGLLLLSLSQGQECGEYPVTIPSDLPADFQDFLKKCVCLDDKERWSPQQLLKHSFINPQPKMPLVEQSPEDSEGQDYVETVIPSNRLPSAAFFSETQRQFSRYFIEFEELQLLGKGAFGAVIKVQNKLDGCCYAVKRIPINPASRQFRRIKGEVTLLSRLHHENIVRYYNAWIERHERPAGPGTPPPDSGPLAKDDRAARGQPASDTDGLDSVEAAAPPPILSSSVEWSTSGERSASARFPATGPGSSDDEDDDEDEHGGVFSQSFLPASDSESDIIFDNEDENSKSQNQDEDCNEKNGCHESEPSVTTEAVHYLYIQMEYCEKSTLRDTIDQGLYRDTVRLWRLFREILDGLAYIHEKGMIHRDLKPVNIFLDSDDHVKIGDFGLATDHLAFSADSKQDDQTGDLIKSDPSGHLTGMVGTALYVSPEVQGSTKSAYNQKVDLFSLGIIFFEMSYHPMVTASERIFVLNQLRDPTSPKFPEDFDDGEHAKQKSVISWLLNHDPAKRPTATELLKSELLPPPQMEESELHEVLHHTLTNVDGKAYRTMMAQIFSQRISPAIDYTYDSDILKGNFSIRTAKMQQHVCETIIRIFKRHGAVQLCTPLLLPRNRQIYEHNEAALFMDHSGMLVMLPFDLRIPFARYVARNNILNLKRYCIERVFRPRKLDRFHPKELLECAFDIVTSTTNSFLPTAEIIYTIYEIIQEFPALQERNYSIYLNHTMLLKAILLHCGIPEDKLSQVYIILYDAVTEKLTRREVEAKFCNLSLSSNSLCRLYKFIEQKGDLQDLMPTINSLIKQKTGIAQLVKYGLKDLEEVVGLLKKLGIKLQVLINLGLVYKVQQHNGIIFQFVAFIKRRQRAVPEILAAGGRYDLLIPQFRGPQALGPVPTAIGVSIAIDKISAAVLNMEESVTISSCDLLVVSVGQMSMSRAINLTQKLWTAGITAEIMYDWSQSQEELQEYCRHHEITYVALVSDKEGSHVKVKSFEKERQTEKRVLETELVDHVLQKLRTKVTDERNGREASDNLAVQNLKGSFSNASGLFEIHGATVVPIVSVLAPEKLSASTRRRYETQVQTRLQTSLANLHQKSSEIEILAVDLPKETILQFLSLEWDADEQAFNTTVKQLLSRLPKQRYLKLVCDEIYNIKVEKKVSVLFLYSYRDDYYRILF
Assay: Biochemical assay for GCN2 (TR-FRET kinase activity)
Details: 1 mM ATP
Let's look at some compounds and their measured IC50.

Record excerpt, results attached:
COCc1cc(Cl)cc(S(=O)(=O)Nc2cccc(-c3cn(C)c4ncnc(N)c34)c2F)c1Cl = 100 to 500 nM
CC(C)n1cc(-c2cccc(NS(=O)(=O)c3cc(Cl)cc(CO)c3Cl)c2F)c2c(N)ncnc21 = ≤ 100 nM
CC(=O)OCc1cc(Cl)cc(S(=O)(=O)Nc2cccc(-c3cn(C)c4ncnc(N)c34)c2F)c1Cl = 1000 to 10000 nM

Query: Entry under review: `Nc1ncnc2c1c(-c1cccc(NS(=O)(=O)c3cc(Cl)cc(CO)c3Cl)c1F)cn2C1CCNCC1` . Reported IC50?
Result: ≤ 100 nM

Query: Same lookup for `Cn1cc(-c2cccc(NS(=O)(=O)c3cc(Cl)cc(CO)c3Cl)c2Cl)c2c(N)ncnc21` , please.
Result: 100 to 500 nM

###

System: CCRF-CEM leukemia cells
Test: CCRF-CEM ASNase cell proliferation assay
Format: cell-based
Details: Homo sapiens, 1 mU/mL ASNase, 72 h
measured.parameter: IC50

CC(C)n1cc(-c2cccc(NS(=O)(=O)c3cc(Cl)cc(CO)c3Cl)c2F)c2c(N)ncnc21 [Example 3] = ≤ 0.1 µM
[2H]C([2H])([2H])n1cc(-c2cccc(NS(=O)(=O)c3cc(Cl)cc(CO)c3Cl)c2F)c2c(N)ncnc21 [Example 27] = ≤ 0.1 µM
Cn1cc(-c2cc(NS(=O)(=O)c3cc(Cl)cc(CO)c3Cl)cc(F)c2F)c2c(N)ncnc21 [Example 7] = 0.5 to 1 µM
Nc1ncnc2c1c(-c1cccc(NS(=O)(=O)c3cc(Cl)cc(CO)c3Cl)c1F)cn2C1COC1 [Example 10] = ≤ 0.1 µM

Query: Entry under review: Cn1cc(-c2cccc(NS(=O)(=O)c3cc(Cl)cc(CO)c3Cl)c2F)c2c(N)nccc21 [Example 18] . Reported IC50?
Result: 1 to 10 µM
